Target: T1, recombinant human FasR (Homo sapiens, UniProt P25445)
T1 construct: Fas receptor (FasR, CD95), human, recombinant; The FasR of the BLI and SPR experiments; Details are in Supplementary Protocols 8-10; also called recombinant FasR
T1 sequence (P25445 26-335): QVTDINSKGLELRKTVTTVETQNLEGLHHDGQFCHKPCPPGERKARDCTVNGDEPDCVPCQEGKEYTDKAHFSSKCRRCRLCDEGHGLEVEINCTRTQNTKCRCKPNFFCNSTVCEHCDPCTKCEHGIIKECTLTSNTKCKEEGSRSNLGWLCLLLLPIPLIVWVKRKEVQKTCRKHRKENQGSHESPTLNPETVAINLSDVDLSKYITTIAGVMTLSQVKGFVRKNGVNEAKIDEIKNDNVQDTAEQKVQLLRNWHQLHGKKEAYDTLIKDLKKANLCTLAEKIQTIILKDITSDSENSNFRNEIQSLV
Assay: SPR; BIAcore T100; low density IgG-coated chip surface, recombinant human FasR; 1:1 Langmuir model; at least in duplicate
Conditions: both partners purified

[
  {
    "Binder": "Ep6b_B01 IgG (antibody, V domains shown, numbers count on: Kabat numbering; IgG heavy constant region; light constant region; IgG) VH: QLQLQESGPGLVKPSETLSLTCTVSGASISANSYYGVWVRQSPGKGLEWVGSIAYRGNSNSGSTYYNPSLKSRATVSVDSSKNQVSLRLTSVTAADTALYYCARRQLLDDGTGYQWAAFDVWGQGTMVTVSS VL: QSVLTQPPSVSEAPRQTVTISCSGNSSNIGRYPVNWYQQLPGKAPKLLIYSDNLRFSGVPDRFSGSKSGTTASLAIRDLLSEDEADYYCSTWDDTLEGWVFGGGTKVTVL",
    "Unit descriptor": "nM",
    "Kd": 0.06
  },
  {
    "Binder": "R4aS IgG (antibody, V domains shown, numbers count on: Kabat numbering; IgG heavy constant region; light constant region; IgG; also called antibody R4aS) VH: QLQLQESGPGLVKPSETLSLTCTVPGASISANSYYGVWVRQSPGKGLEWVGSIAYRGNSNSGSTYYNPSLKSRATVSVDTSKNQVSLRLTSVTAADTALYYCARRQLLDDGTGYQWAAFDNWDQGTMVTVSS VL: QSVLTQPPSVSEAPRQTVTISCSGNSFNTGRYPVNWYQQLPGKAPKLLIYSNNLRLSGVSDRFSGSKSGTSASLAIRDLLSEDEADYYCSTWDDTLEGWVFGGGTKVTVL",
    "Unit descriptor": "nM",
    "Kd": 0.14
  },
  {
    "Binder": "E09 IgG (antibody, V domains shown, VH: as the VH of m6 (E09); IgG heavy constant region; VL: as the VL of m6 (E09); light constant region; IgG; also called parent) VH: QLQLQESGPGLVKPSETLSLTCTVSGASISANSYYGVWVRQSPGKGLEWVGSIAYRGNSNSGSTYYNPSLKSRATVSVDTSKNQVSLRLTSVTAADTALYYCARRQLLDDGTGYQWAAFDVWGQGTMVTVSS VL: QSVLTQPPSVSEAPRQTVTISCSGNSFNIGRYPVNWYQQLPGKAPKLLIYYNNLRFSGVSDRFSGSKSGTSASLAIRDLLSEDEADYYCSTWDDTLKGWVFGGGTKVTVL",
    "Unit descriptor": "nM",
    "Kd": 13.7
  },
  {
    "Binder": "A07a IgG (antibody, V domains shown, numbers count on: Kabat numbering; IgG heavy constant region; light constant region; IgG made from the scFv A07a) VH: QLQLQESGPGLVKPSETLSLTCTVPGASISANSYYGVWVRQSPGKGLEWVGSIAYRGNSNSGSTYYNPSLKGRATVSVDTSKNQVSLRLTSVTAADTALYYCARRQLLDDGTGYQWAAFDNWDQGTMVTVSS VL: QSVLTQPPSVSEAPRQTVTISCSGNSFNIGRYPVNWYQQLPGKAPKLLIYSNNLRFSGVSDRFSGSKSGTSASLAIRDLLSEDEADYYCSTWDDTLKGWVFGGGTKVTVL",
    "Unit descriptor": "nM",
    "Kd": 0.29
  }
]
